Cited source for all entries: patent US9102669B2

The reader will find pIC50 measurements below, all made with SCD1 (Rattus norvegicus (Rat)).
Sequence (P07308 whole entry): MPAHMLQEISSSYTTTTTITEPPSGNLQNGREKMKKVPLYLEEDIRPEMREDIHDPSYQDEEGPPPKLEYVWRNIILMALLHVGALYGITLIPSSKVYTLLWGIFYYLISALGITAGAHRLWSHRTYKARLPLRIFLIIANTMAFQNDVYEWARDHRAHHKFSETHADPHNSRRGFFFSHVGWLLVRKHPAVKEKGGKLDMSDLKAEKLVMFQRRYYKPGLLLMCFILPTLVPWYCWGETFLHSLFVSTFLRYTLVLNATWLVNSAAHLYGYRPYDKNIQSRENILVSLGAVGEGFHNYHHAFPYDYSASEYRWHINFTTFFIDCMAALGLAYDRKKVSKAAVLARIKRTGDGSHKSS
In textbook form, pIC50 equals minus log to base ten of the concentration in mol/L.

molecule	study_target	value_observed
NC(=O)Cn1cc(-c2ccc(N3CCC(N4CCc5ccc(F)cc54)CC3)nn2)cn1 [compound 69]	SCD1 (Rattus norvegicus (Rat))	6.41
Cn1cc(-c2ccc(N3CCC(N4CCc5ccccc54)CC3)nn2)cn1 [Compound #10]	SCD1 (Rattus norvegicus (Rat))	6.40
Cc1nsc(-c2ccc(N3CCC(n4ccc5ccccc54)CC3)nn2)n1 [Compound #6]	SCD1 (Rattus norvegicus (Rat))	7.47
Cc1ccc2c(c1)N(C1CCN(c3ccc(-c4cnn(C)c4)nn3)CC1)CC2 [Compound #57]	SCD1 (Rattus norvegicus (Rat))	6.54
Cn1cc(-c2ccc(N3CCC(N4CCc5c(F)cccc54)CC3)nn2)cn1 [Compound #66]	SCD1 (Rattus norvegicus (Rat))	6.17

Now for a further molecule.
Reported pIC50 for Cc1ccc(-c2ccc(N3CCC(N4CCc5ccc(F)cc54)CC3)nn2)cc1 [Compound #36] : what is it?
7.10
